Target: Ybr033w (UniProt P38073)
Sequence: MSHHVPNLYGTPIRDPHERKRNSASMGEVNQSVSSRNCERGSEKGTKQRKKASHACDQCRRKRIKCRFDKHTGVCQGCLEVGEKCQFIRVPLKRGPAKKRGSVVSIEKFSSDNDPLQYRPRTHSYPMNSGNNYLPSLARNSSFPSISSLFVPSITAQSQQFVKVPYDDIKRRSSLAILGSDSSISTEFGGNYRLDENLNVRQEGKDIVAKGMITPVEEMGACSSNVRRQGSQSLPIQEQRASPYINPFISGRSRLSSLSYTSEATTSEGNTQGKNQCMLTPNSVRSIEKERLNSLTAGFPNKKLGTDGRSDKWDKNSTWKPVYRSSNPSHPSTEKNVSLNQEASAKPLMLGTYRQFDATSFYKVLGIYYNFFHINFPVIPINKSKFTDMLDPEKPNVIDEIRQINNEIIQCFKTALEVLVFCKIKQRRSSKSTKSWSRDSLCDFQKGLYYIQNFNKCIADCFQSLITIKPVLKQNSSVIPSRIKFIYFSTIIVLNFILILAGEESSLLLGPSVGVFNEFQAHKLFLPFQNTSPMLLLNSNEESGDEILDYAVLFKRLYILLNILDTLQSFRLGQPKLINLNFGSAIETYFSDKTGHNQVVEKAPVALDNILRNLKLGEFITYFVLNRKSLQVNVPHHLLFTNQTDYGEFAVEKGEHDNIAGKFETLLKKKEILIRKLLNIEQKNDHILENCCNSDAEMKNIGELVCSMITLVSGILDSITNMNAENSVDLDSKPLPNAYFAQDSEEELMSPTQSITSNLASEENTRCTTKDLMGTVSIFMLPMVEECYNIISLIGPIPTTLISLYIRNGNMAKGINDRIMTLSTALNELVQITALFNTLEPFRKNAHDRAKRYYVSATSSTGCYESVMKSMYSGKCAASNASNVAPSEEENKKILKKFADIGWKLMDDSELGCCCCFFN
Experiment: PBM E-score (8-mer binding enrichment) (E-score (-0.5 to 0.5)); higher = stronger / more preferred TF binding
Conditions: protein concentration: 200 nM; construct: GST-full length
The full ranking holds about 33,000 sequences; the median of “E-score (-0.5 to 0.5)” is about -0.012, and the highest 2% start at about 0.29. This is one part of a sample in which the highest values are shown more often than they occur.
Label Criterion met when PBM E-score is at or above 0.1; otherwise label Criterion not met.

>  <SEQUENCE_TEXT>
ACACCAGA

>  <SYSTEM_NAME>
Ybr033w (UniProt P38073)

>  <CATEGORY>
Criterion not met

$$$$
>  <SEQUENCE_TEXT>
ACAATATC

>  <SYSTEM_NAME>
Ybr033w (UniProt P38073)

>  <CATEGORY>
Criterion met

$$$$
>  <SEQUENCE_TEXT>
AAAATATC

>  <SYSTEM_NAME>
Ybr033w (UniProt P38073)

>  <CATEGORY>
Criterion met

$$$$
>  <SEQUENCE_TEXT>
AAAGCAAT

>  <SYSTEM_NAME>
Ybr033w (UniProt P38073)

>  <CATEGORY>
Criterion met

$$$$
>  <SEQUENCE_TEXT>
AGACTGCC

>  <SYSTEM_NAME>
Ybr033w (UniProt P38073)

>  <CATEGORY>
Criterion not met

$$$$
>  <SEQUENCE_TEXT>
ACTAGCCA

>  <SYSTEM_NAME>
Ybr033w (UniProt P38073)

>  <CATEGORY>
Criterion not met

$$$$
>  <SEQUENCE_TEXT>
CCATGGGA

>  <SYSTEM_NAME>
Ybr033w (UniProt P38073)

>  <CATEGORY>
Criterion not met

$$$$
>  <SEQUENCE_TEXT>
AAAAACCT

>  <SYSTEM_NAME>
Ybr033w (UniProt P38073)

>  <CATEGORY>
Criterion met

$$$$
>  <SEQUENCE_TEXT>
AATATATA

>  <SYSTEM_NAME>
Ybr033w (UniProt P38073)

>  <CATEGORY>
Criterion met

$$$$
>  <SEQUENCE_TEXT>
ACAATATG

>  <SYSTEM_NAME>
Ybr033w (UniProt P38073)

>  <CATEGORY>
Criterion met

$$$$
>  <SEQUENCE_TEXT>
AAAAACCC

>  <SYSTEM_NAME>
Ybr033w (UniProt P38073)

>  <CATEGORY>
Criterion met

$$$$
>  <SEQUENCE_TEXT>
AAATCGAC

>  <SYSTEM_NAME>
Ybr033w (UniProt P38073)

>  <CATEGORY>
Criterion met

$$$$
>  <SEQUENCE_TEXT>
CGGTGATA

>  <SYSTEM_NAME>
Ybr033w (UniProt P38073)

>  <CATEGORY>
Criterion met

$$$$
>  <SEQUENCE_TEXT>
ATAAAGTG

>  <SYSTEM_NAME>
Ybr033w (UniProt P38073)

>  <CATEGORY>
Criterion met

$$$$
>  <SEQUENCE_TEXT>
ACTCCCCT

>  <SYSTEM_NAME>
Ybr033w (UniProt P38073)

>  <CATEGORY>
Criterion not met

$$$$
>  <SEQUENCE_TEXT>
CATCTGTA

>  <SYSTEM_NAME>
Ybr033w (UniProt P38073)

>  <CATEGORY>
Criterion not met

$$$$
>  <SEQUENCE_TEXT>
AAGCGACG

>  <SYSTEM_NAME>
Ybr033w (UniProt P38073)

>  <CATEGORY>
Criterion not met

$$$$
>  <SEQUENCE_TEXT>
ACCTACAG

>  <SYSTEM_NAME>
Ybr033w (UniProt P38073)

>  <CATEGORY>
Criterion not met

$$$$
>  <SEQUENCE_TEXT>
AAAATATA

>  <SYSTEM_NAME>
Ybr033w (UniProt P38073)

>  <CATEGORY>
Criterion met

$$$$
>  <SEQUENCE_TEXT>
AATCGGGG

>  <SYSTEM_NAME>
Ybr033w (UniProt P38073)

>  <CATEGORY>
Criterion not met

$$$$
>  <SEQUENCE_TEXT>
GTAAAGTA

>  <SYSTEM_NAME>
Ybr033w (UniProt P38073)

>  <CATEGORY>
Criterion met

$$$$
>  <SEQUENCE_TEXT>
CATGAGGA

>  <SYSTEM_NAME>
Ybr033w (UniProt P38073)

>  <CATEGORY>
Criterion not met

$$$$
>  <SEQUENCE_TEXT>
GGAATAAA

>  <SYSTEM_NAME>
Ybr033w (UniProt P38073)

>  <CATEGORY>
Criterion met

$$$$
>  <SEQUENCE_TEXT>
ACCTCGGA

>  <SYSTEM_NAME>
Ybr033w (UniProt P38073)

>  <CATEGORY>
Criterion not met

$$$$
